Ref: PubChem BioAssay (NCATS)

STUDY_TARGET: Cellular tumor antigen p53 (Homo sapiens) (UniProt P04637)
Sequence (P04637 whole entry, looked up): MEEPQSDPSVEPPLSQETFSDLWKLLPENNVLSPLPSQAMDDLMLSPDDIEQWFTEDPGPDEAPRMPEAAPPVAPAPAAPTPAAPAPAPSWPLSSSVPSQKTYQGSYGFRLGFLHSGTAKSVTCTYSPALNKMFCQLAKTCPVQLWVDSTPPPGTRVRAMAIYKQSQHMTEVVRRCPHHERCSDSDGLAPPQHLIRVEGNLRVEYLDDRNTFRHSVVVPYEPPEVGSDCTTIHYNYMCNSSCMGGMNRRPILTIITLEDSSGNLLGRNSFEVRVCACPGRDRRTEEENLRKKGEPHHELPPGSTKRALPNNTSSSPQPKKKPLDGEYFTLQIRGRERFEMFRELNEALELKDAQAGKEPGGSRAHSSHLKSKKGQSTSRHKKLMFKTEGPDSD
ASSAY_NOTES: Primary qHTS for small molecule compounds that upregulate eGFP-tagged delta133p53alpha (in N-terminal) cells. (AID 2060322);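 further: cells pre-induced with doxycycline then dosed without doxycycline; series mostly up to about 56 µM; 0% = DMSO vehicle and 100% = reference activator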
EXPERIMENTAL_CONDITIONS: NCI-H358 eGFP-delta133p53alpha fluorescence, 24 h; stronger effect = higher value
Records with an inconclusive call do not appear. Square brackets hold non-standard residues; d marks the D form. Peptide text beside a SMILES is read from it. pGlu = O=C1CC[C@@H](C(=O)O)N1; Thz = O=C(O)[C@@H]1CSCN1
PROPERTY_MEASURED: activation (%)

1. CC[C@]1(O)C[C@H]2CN(CCC3=c4ccccc4=N[C]3[C@@](C(=O)OC)(c3cc4c(cc3OC)N(C)[C@H]3[C@@](O)(C(N)=O)[C@H](O)[C@]5(CC)C=CCN6CC[C@]43[C@@H]65)C2)C1 :: 31.2
2. CC(=O)OC[C@]12[C@H](OC(C)=O)[C@H](OC(=O)c3ccccc3)[C@@H]3[C@@H](OC(C)=O)[C@]1(OC3(C)C)[C@H](C)C[C@H](OC(=O)c1ccccc1)[C@@H]2OC(=O)c1ccccc1 :: -31.3
3. CC(C)(C#N)c1cc(Cn2cncn2)cc(C(C)(C)C#N)c1 :: 2.42
4. CCOc1cccc(NC(=O)c2ccc(N3CCCC3)c(C(F)(F)F)c2)c1 :: 5.67
5. CC1CCC2(NC1)OC1CC3C4CC=C5CC(O[C@@H]6O[C@H](CO)[C@@H](O[C@@H]7O[C@@H](C)[C@H](O)[C@@H](O)[C@H]7O)[C@H](O)[C@H]6O[C@@H]6O[C@@H](C)[C@H](O)[C@@H](O)[C@H]6O)CCC5(C)C4CCC3(C)C1C2C (stereo partly specified) :: 16.8
6. Oc1ccc2ccccc2c1SSc1c(O)ccc2ccccc12 :: -0.0951
7. [O-][n+]1cccc(/C(Cl)=N/OC[C@@H](O)CN2CCCCC2)c1 :: -6.69
8. COc1ccnc(CCc2nc3ncccc3[nH]2)c1 :: -5.73
9. NC(N)=N/N=C/c1ccccc1Cl :: 3.67
10. O=C1CC[C@@H](C(=O)N2CSC[C@H]2C(=O)O)N1 ([pGlu]-[Thz]-OH) :: 1.43
11. CC(C)(C)NS(=O)(=O)c1ccc(-c2ccc3[nH]nc(N)c3c2)cc1 :: 0
12. COc1cc2c(cc1OC)CC(=O)N(CCCN(C)C[C@H]1Cc3cc(OC)c(OC)cc31)CC2 :: -11.1
13. CCC(C)(C)c1ccc(CC(C)CN2C[C@@H](C)O[C@@H](C)C2)cc1 (stereo partly specified) :: -16.4
14. COc1ccc(CCO[C@@H]2O[C@H](CO[C@H]3OC[C@](O)(CO)[C@H]3O)[C@@H](OC(=O)/C=C/c3ccc(O)c(O)c3)[C@H](O[C@@H]3O[C@@H](C)[C@H](O)[C@@H](O)[C@H]3O)[C@H]2O)cc1OC :: 16
15. Cc1c(C(=O)NCc2cccnc2)nn(-c2ccc(Cl)cc2Cl)c1-c1ccc(Cl)cc1 :: 21
16. O=C1CCC(c2ccccc2)(C2CCN(Cc3ccc(I)cc3)CC2)C(=O)N1 (stereo unspecified) :: 4.33
17. CN1CC2CN(c3ccc4oc5ccccc5c(=O)c4c3)CC2C1 (stereo unspecified) :: 0.955
18. COC(=O)C1=CO[C@@H](O[C@@H]2O[C@H](CO)[C@@H](O)[C@H](O)[C@H]2O)[C@@H]2C(COC(C)=O)=C[C@H](O)[C@H]12 :: -14.5
19. COCc1c(C(C)C)nc(C(C)C)c(/C=C/[C@@H](O)C[C@@H](O)CC(=O)O)c1-c1ccc(F)cc1 :: 27.7
20. Cc1cc(O)c2c(O)c3c(O)cccc3cc2c1 :: 0.837
21. CN(C)CCOC(c1ccc(Cl)cc1)c1ccccn1 (stereo unspecified) :: 15.3
22. OC[C@H]1O[C@@H](Oc2ccc(O)cc2)[C@H](O)[C@@H](O)[C@H]1O :: -6.58
23. C=C(C(=O)O)C1CC(O)C2(C)CCCC(=C)C2C1 (stereo unspecified) :: 3.82
24. COC1=CC(=O)O[C@@H](/C=C/c2ccccc2)[C@@H]1O :: 9.82
25. O=C(N/N=C/c1ccccc1O)c1ccncc1 :: -12.6
26. CC(=O)OC1CC2(C)C3=CCC4(C)C5C(O)C(O)C(C(C)C)C5(C)CCC4(C)C3CCC2C(C)(C)C1OC1OC(CO)C(O)C(O)C1O (stereo unspecified) :: -1.53
